These measurements were taken from patent US4921850A.

Tested on: Staph. aureus 209-P
Measurement Notes: Anti-bacterial activity (MIC), agar dilution
Assay type: cell-based
Condition Context: Staphylococcus aureus, 209P, 18 h, Staph. aureus 209-P; agar dilution, about 10^6 CFU/ml, 18 hours, 37° C.; read-out: MIC
Assay Endpoint: MIC (µg/mL)

>>> print(df.to_string())
                                   compound      subject_of_test  assay_endpoint  value_unit  measured_number
0  C[N+](C)(C)C/C=C/C1=C(C(=O)[O-])N2C(=O)[C@@H](NC(=O)/C(=N\OCF)c3nsc(N)n3)[C@H]2SC1  Staph. aureus 209-P             MIC       µg/mL              0.2
1  C[N+]1(C/C=C/C2=C(C(=O)[O-])N3C(=O)[C@@H](NC(=O)/C(=N\OCF)c4nsc(N)n4)[C@H]3SC2)CCN(C(N)=O)CC1  Staph. aureus 209-P             MIC       µg/mL              0.2
2  Nc1nc(/C(=N/OCF)C(=O)N[C@@H]2C(=O)N3C(C(=O)[O-])=C(/C=C/C[N+]4(CCO)CC=C(C=NO)CC4)CS[C@H]23)ns1 (stereo partly drawn)  Staph. aureus 209-P             MIC       µg/mL              0.2

1. NC(=O)C[N+]1(C/C=C/C2=C(C(=O)[O-])N3C(=O)[C@@H](NC(=O)/C(=N\OCF)c4nsc(N)n4)[C@H]3SC2)CCN(C(N)=O)CC1
2. CC(O)C[N+]1(C/C=C/C2=C(C(=O)[O-])N3C(=O)[C@@H](NC(=O)/C(=N\OCF)c4nsc(N)n4)[C@H]3SC2)CCOCC1 (stereo partly drawn)
Between 1 and 2 , which one shows the larger MIC value? Let me know the label of the one you choose.
1
(1: 0.4 µg/mL, 2: 0.2 µg/mL)

a. C[N+](C)(C/C=C/C1=C(C(=O)[O-])N2C(=O)[C@@H](NC(=O)/C(=N\OCF)c3nsc(N)n3)[C@H]2SC1)CC(=O)N(CCO)CCO
b. CC[N+](C)(C/C=C/C1=C(C(=O)[O-])N2C(=O)[C@@H](NC(=O)/C(=N\OCF)c3nsc(N)n3)[C@H]2SC1)CCO (stereo partly drawn)
Between a and b , which one shows the larger MIC value? Let me know the label of the one you choose.
a
